# credit: ChEMBL document CHEMBL1201862

Can you tell me AC50 for the items I'm about to list?
ASSAY_SYSTEM: UniProt Q06710
Sequence (Q06710 whole entry): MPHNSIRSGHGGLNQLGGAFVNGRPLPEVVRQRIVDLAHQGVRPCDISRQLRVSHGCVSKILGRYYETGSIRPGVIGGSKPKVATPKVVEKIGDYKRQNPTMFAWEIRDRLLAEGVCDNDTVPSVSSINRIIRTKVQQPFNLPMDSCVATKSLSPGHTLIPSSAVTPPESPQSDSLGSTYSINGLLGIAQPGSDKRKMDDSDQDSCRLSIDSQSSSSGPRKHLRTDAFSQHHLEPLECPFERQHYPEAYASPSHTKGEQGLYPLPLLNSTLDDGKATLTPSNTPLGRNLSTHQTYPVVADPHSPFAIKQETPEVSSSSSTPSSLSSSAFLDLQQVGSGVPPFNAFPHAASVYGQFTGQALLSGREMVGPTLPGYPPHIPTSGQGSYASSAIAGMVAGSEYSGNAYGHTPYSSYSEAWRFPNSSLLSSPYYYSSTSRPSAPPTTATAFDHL
PROTOCOL_SUMMARY: inhibitors of PAX8-driven TPO luciferase reporter, dose response, RMG-I cells, cherry-pick (AID 687027);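 note: luciferase reporter driven by Pax8 target thyroperoxidase promoter measured by SteadyGlo luminescence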
Type: functional, cell-based
Active and inactive are the calls of the source.

Given `COc1ccc(-n2ncc(Cl)c(Cl)c2=O)cc1` , report its AC50 on UniProt Q06710.
5.62 µM (active)

Enter recorded AC50 with UniProt Q06710 for `Cn1c(CCN2CCCC2)nc2cc(NS(=O)(=O)c3ccc(Cl)cc3)ccc21` here.
6.57 µM (active)

Report AC50 from UniProt Q06710 testing of `NC(=S)c1cn([C@@H]2O[C@H](CO)[C@@H](O)[C@H]2O)c2ncnc(N)c12`
0.294 µM (active)

# return AC50 for `CCc1cnc(N2[C@@H](C#N)[C@@H](c3ccc(C#CC(C)C)cc3)[C@@H]2CO)s1` , test system: UniProt Q06710
15.4 µM (active)

Give AC50 for `O=C(C[C@@H]1C[C@H]2c3cc(NS(=O)(=O)c4ccc(F)cc4)ccc3O[C@H]2[C@@H](CO)O1)NCc1ccc(Oc2ccccc2)cc1` tested on UniProt Q06710.
7.32 µM (active)

GET AC50 where system = UniProt Q06710 and item = `CCOc1ccc(C(=O)c2cc([N+](=O)[O-])ccc2N2CCOCC2)cc1`
< 0.26 µM (active)

Find the measured AC50 of `CN(C[C@H]1N[C@@H](CO)[C@@H]1c1ccc(C2=CCCC2)cc1)C(=O)c1cccc(F)c1` with UniProt Q06710 as test system.
2.47 µM (active)

Quote AC50 with test system UniProt Q06710 for `C[C@H](CO)N1C[C@H](C)[C@@H](CN(C)Cc2ccc(Cl)c(Cl)c2)OCCCC[C@H](C)Oc2ccc(NS(=O)(=O)c3ccccc3)cc2C1=O`
17.5 µM (active)

###

What EC50 was measured for each of the following?
PROTOCOL_SUMMARY: inhibitors of intracellular T. cruzi replication, confirmation, NIH3T3 host cells, beta-gal luminescence (AID 2044);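 note: intracellular parasites grown in NIH/3T3 mouse fibroblasts as host cells; luminescent beta-galactosidase reporter signal from transgenic T. cruzi replicating inside host cells; inhibitors lower the luminescence signal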
Type: functional, cell-based
The source made the active and inactive calls.

Entry C#C[C@]1(O)CC[C@H]2[C@@H]3CCc4cc(OC5CCCC5)ccc4[C@H]3CC[C@@]21C [QUINESTROL] needs its EC50 filled in; supply it.
4430 nM (active)

Report EC50, nothing else, for this compound: `Cc1c([N+](=O)[O-])nnn1-c1cc(Cl)cc(Cl)c1`
1860 nM (active)

// Input: O=C(c1cc(COc2cccc3cnccc23)on1)N1CCC(c2ccccc2Cl)C1 (stereo unspecified) . Output its EC50 only.
1570 nM (active)

Note EC50 for the compound shown: `FC(F)(F)c1cc(-c2ccc(Cl)cc2)nc(NCc2cccnc2)n1`
1010 nM (active)

Hello, please tell me recorded EC50 for this one: `Cc1ccc2nc(N(CCCN(C)C)C(=O)c3ccc(Br)s3)sc2c1`
102 nM (active)

Please indicate EC50 recorded for `CCn1/c(=N\C(=O)CS(=O)(=O)c2ccccc2)sc2cccc(OC)c21`
1740 nM (active)

###

ASSAY_SYSTEM: Melanocortin receptor 4 (Homo sapiens, UniProt P32245)
Sequence (P32245 whole entry): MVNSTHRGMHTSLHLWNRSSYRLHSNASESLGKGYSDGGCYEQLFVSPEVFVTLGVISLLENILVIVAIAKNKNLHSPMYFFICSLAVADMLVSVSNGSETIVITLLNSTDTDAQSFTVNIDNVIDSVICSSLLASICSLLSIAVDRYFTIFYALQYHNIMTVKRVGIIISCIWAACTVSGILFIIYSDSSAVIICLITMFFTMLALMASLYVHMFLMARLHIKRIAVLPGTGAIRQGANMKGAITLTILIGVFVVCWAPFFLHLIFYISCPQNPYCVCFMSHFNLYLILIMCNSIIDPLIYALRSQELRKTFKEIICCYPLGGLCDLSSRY
PROTOCOL_SUMMARY: MC4R antagonist potency on cAMP, dose response, cell-based, TR-FRET, biased antagonists (AID 602298);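 note: antagonist potency against agonist-stimulated cAMP production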
Type: functional
The source made the active and inactive calls.
REPORTED_PROPERTY: IC50

Give recorded IC50. `C=CCn1/c(=N/C(=O)c2sc3ccccc3c2Cl)sc2cc(S(N)(=O)=O)ccc21`
30.7 µM (inactive)

Find the measured IC50 of `CCOC(=O)CSc1nc2ccc(Nc3nc(N4CCOCC4)nc(N4CCOCC4)n3)cc2s1` and report it.
> 64.6 µM (inactive)

Output IC50 of `NS(=O)(=O)c1ccc(NC(=O)COC(=O)c2ncc(Cl)c(Cl)c2Cl)cc1`
> 64.6 µM (inactive)

For the compound `NC(=S)c1cn([C@@H]2O[C@H](CO)[C@@H](O)[C@H]2O)c2ncnc(N)c12` , give its reported IC50.
> 64.6 µM (inactive)
